The following molecules have recorded pIC50 on Urease (Canavalia ensiformis).
Sequence (P07374 whole entry): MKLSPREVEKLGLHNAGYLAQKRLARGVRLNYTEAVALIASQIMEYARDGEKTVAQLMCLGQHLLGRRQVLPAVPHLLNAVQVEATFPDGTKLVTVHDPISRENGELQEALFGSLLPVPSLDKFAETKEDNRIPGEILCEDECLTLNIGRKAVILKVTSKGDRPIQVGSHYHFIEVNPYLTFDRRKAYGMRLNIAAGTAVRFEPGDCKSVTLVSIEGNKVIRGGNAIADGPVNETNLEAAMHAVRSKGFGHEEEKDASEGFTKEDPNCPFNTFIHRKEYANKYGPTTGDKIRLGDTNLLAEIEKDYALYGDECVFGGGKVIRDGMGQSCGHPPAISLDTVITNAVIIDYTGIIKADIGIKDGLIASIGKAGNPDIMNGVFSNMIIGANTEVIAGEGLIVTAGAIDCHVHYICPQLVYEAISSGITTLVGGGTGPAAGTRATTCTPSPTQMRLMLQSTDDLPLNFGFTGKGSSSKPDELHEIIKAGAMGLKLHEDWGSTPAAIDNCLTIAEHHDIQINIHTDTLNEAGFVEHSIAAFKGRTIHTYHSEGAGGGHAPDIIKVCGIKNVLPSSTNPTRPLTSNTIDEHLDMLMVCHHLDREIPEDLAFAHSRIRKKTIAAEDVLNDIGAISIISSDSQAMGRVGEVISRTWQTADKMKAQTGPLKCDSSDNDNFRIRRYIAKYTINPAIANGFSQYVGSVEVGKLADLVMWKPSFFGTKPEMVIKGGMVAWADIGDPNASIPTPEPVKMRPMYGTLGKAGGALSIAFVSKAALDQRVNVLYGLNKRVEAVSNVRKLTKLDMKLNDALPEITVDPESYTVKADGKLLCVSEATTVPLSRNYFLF
pIC50 (log units): -log10 of the concentration in mol/L.

Use the examples below as a reference point.
[
  {
    "Molecule": "O=c1c2cccc(O)c2oc2c(O)c(O)ccc12",
    "Target desc": "Urease (Canavalia ensiformis)",
    "pIC50": 4.42
  },
  {
    "Molecule": "O=c1c2cc(O)ccc2oc2cc(O)cc(O)c12 [1,3,7-trihydroxy-9H-xanthen-9-one]",
    "Target desc": "Urease (Canavalia ensiformis)",
    "pIC50": 3.86
  }
]

Now consider the entry below.
Exam item: // lookup pIC50 for CCCCCCCCCCCCCCCCCCCCCCCCOC(=O)C=Cc1ccc(O)c(O)c1
Marked response: 4.68
